Just for reference, patent US6833456B2 is where these values come from.

Each entry below carries its recorded inhibition at 0.05 µM.
target: unphosphorylated VEGF-R2Δ50 (FLVK) (Homo sapiens, UniProt P35968, DEL940-989/E990V); construct: VEGF-R2Δ50 contains residues 806-939 and 990-1171; made in house; host or cells: baculovirus/insect cell system; test: VEGF-R2 coupled spectrophotometric assay, unphosphorylated construct (FLVK); type: biochemical; conditions: percent inhibition at 50 nM
Sequence (P35968 with tags, fused parts or gaps DEL940-989/E990V limits assumed): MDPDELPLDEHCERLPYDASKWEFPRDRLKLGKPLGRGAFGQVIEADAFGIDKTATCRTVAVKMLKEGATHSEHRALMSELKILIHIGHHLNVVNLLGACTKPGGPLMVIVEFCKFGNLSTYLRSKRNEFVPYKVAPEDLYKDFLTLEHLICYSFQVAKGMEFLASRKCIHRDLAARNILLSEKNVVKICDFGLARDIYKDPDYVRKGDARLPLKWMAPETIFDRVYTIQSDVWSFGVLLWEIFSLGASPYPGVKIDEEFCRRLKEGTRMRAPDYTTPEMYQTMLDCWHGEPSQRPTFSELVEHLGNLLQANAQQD
// return numeric value only (unit: %, not printed)

Some solved entries appear below for comparison.
{"columns": ["compound", "inhibition at 0.05 µM, %"],
 "data": [
  ["Cc1cc2cc(Nc3ccnc4cc(C(=O)N5C[C@H](O)C[C@H]5C(C)(C)O)sc34)ccc2n1C(=O)NC1CC1 [Example 3e]", 87],
  ["CNC(=O)n1ccc2cc(Oc3ccnc4cc(-c5nc(C(C)(C)O)cs5)sc34)ccc21 [Example 31]", 97],
  ["CCOC(=O)c1cc2c(Nc3ccc4c(c3)cc(C)n4C(=O)NC)ncnc2s1 [Example 12a]", 0],
  ["CCOC(=O)c1cc2ncnc(Nc3ccc4c(c3)cc(C)n4C(=O)NC)c2s1 [Example 11a]", 20],
  ["CCNC(=O)n1c(C)cc2cc(Oc3ccnc4cc(C(=O)N5CC[C@H](O)C5)sc34)ccc21 [Example 9h]", 99],
  ["CNC(=O)n1c(C)cc2cc(Oc3ccnc4cc(C(=O)N5CC[C@H](OC)C5)sc34)ccc21 [Example 4g]", 97],
  ["COC[C@@H]1C[C@@H](O)CN1C(=O)c1cc2nccc(Nc3ccc4c(c3)cc(C)n4C(=O)NC3CC3)c2s1 [Example 3h]", 95]
]}

// switching to the query compound
Form field - read-out: inhibition at 0.05 µM; system: unphosphorylated VEGF-R2Δ50 (FLVK) (Homo sapiens, UniProt P35968, DEL940-989/E990V); submitted item: CNC(=O)n1c(C)cc2cc(Nc3ccnc4cc(-c5nccn5C)sc34)ccc21 [Example 2a]
84

###

biological target: unphosphorylated VEGF-R2Δ50 (FLVK) (Homo sapiens, UniProt P35968, DEL940-989/E990V); construct: VEGF-R2Δ50 contains residues 806-939 and 990-1171; made in house; host or cells: baculovirus/insect cell system; experiment: VEGF-R2 coupled spectrophotometric assay, unphosphorylated construct (FLVK); type: biochemical
measured_quantity: log10 of Ki (log10 of the value in pM)
Please note: log10 values; quantity Ki; unit pM.

{"columns": ["compound", "recorded_measurement"],
 "data": [
  ["CCCNC(=O)n1c(C)cc2cc(Oc3ccnc4cc(C(=O)N5CC[C@H](O)C5)sc34)ccc21 [Example 9i]", 2.39]
]}

Tell me the measured log10 of Ki of CNC(=O)n1c(C)cc2cc(Nc3ccnc4cc(C(=O)N5CCC[C@H]5COC)sc34)ccc21 [Example 1t] , please.
3.05

Also CNC(=O)n1c(C)cc2cc(Oc3ccnc4cc(C(=O)N5CCC[C@H]5COC)sc34)ccc21 [Example 4a] ?
3.04

Also CNC(=O)n1c(C)cc2cc(Oc3ccnc4cc(C(=O)N5CC(F)[C@@H](OC)C5)sc34)ccc21 (stereo partly drawn) [Example 8j] ?
2.15

Also CO[C@H]1CCN(C(=O)c2cc3nccc(Oc4ccc5c(c4)cc(C)n5C(=O)NC4CC4)c3s2)C1 [Example 4h] ?
3.20

Also CO[C@H]1CCN(C(=O)c2cc3nccc(Oc4ccc5c(cc(C)n5C(=O)NC5CC5)c4F)c3s2)C1 [Example 5h] ?
2.72

Also CNC(=O)n1c(C)cc2cc(Nc3ccnc4cc(C(=O)N5C[C@H](OC)[C@@H](OC)C5)sc34)ccc21 [Example 1r] ?
2.81

Also C#CCNC(=O)n1c(C)cc2cc(Nc3ccnc4cc(C(=O)N5CCC[C@@H]5COC)sc34)ccc21 [Example 7d] ?
2.70

Also CNC(=O)n1c(C)cc2cc(Nc3ccnc4cc(C(=O)N5CCC5)sc34)ccc21 [Example 7c] ?
3.28

Also CCCNC(=O)n1c(C)cc2cc(Oc3ccnc4cc(C(=O)N5C[C@H](OC)[C@@H](OC)C5)sc34)ccc21 [Example 8e] ?
2.06

Also CO[C@H]1CN(C(=O)c2cc3nccc(Nc4ccc5c(c4)cc(C)n5C(=O)NC4CC4)c3s2)C[C@@H]1OC [Example 1s] ?
3.04

Also CNC(=O)n1c(C)cc2c(F)c(Oc3ccnc4cc(C(=O)N5CC[C@H](OC)C5)sc34)ccc21 [Example 5f] ?
1.98

Also CO[C@H]1CN(C(=O)c2cc3nccc(Oc4ccc5c(c4)cc(C)n5C(=O)NCCO)c3s2)CC1F (stereo partly drawn) [Example 8k] ?
2.94

Also C#CCNC(=O)n1c(C)cc2c(F)c(Oc3ccnc4cc(C(=O)N5CC[C@@H](O)C5)sc34)ccc21 [Example 5p] ?
1.92

Also CCNC(=O)n1c(C)cc2cc(Oc3ccnc4cc(C(=O)N5CC[C@H](O)C5)sc34)ccc21 [Example 9h] ?
2.41
